# testProtocol: Skin sensitivity test, LLNA-BrdU method (lymph node weight)
# Type: in vivo
# conditions: 5 w/v % in acetone/olive oil 4:1, transdermal to auricle once a day for 3 days, mice
measure: SI value (Stimulation index, lymph node weight ratio to solvent group)

Before answering, review these 3 worked examples.
CCCCCCCCN(C)C(=N)/N=C(\N)NCc1ccc(Cl)cc1.Cl; 2.4
CCCCCCCCNC1=NC(C)(C)NC(Nc2ccccc2)=N1 [Ref. Ex. 4, acetate, reference compound]; 4.4
CCCCCCCCNC1=NC(C)(C)N=C(NCc2ccc(C)cc2)N1 [Ref. Ex. 5, reference compound]; 4.4

(A) CCCCCCCCNC1=NC(C)(C)NC(N(C)Cc2ccccc2)=N1 [Example 5, acetate]
(B) CCCCCCCCNC1=NC(C)(C)N=C(NCC2CCCCC2)N1 [Ref. Ex. 3, acetate, reference compound]
(C) CCCCCCCCN(C)C1=NC(C)(C)NC(NCc2ccc(C)cc2)=N1 [Example 7, acetate]
// query hey, can you rank those molecules up there by SI value (Stimulation index, lymph node weight ratio to solvent group)? biggest number first please To answer, write out the labels according to the requested order.
// result B, C, A

* * *

# System: P. aeruginosa ATCC 27853
# testProtocol: Bactericidal activity test (MBC measurement)
# Assay type: cell-based, Pseudomonas aeruginosa
# conditions: Pseudomonas aeruginosa, ATCC27853, 0.5 min; P. aeruginosa ATCC 27853, action time 0.5 min; read-out: MBC
measure: MBC (µg/mL)
Your answer should be a plain number; it is taken to be in µg/mL.

CCCCCCCCN(C)C1=NC(C)(C)NC(NCc2ccc(Cl)cc2)=N1 [Example 1, acetate]; 12.5
CCCCCCCCCCNC1=NC(C)(C)NC(N(C)CCC)=N1; 25
CC(=O)O.CCCCCCCCN(C)C1=NC(C)(C)NC(N(C)Cc2ccccc2)=N1; 25
CC(=O)O.CCCCCCCCN(C)C1=NC(C)(C)NC(NCc2ccc(Cl)c(Cl)c2)=N1; 25
CCCCCCCCN(C)C(=N)/N=C(\N)NCc1ccc(Cl)cc1.Cl; 12.5
CC(=O)O.CCCCCCCCCCNC1=NC(N2CCCCC2)=NC(C)(C)N1; 25
CCCCCCCCCCNC1=NC(N2Cc3ccccc3C2)=NC(C)(C)N1; 37.5
CC(=O)O.CCCCCCCCCNC1=NC(C)(C)NC(N(C)Cc2ccccc2)=N1; 25
CC(=O)O.CCCCCCCCNC1=NC(C)(C)NC(N(CC)Cc2ccccc2)=N1; 18.8
CCCCCCCCCCCCNC1=NC(N2CCOCC2)=NCN1; 12.5

// query Give the value of MBC reported for the following: CCCCCCCCNC1=NC(C)(C)NC(N(C)CCc2ccccc2)=N1
// result 25

// query Answer with the recorded MBC of CCCCCCCCCCCCCCN(C)C1=NC(C)(C)NC(N)=N1.Cl only.
// result 18.8

// query Identify measured MBC associated with CCCCCCCCNC1=NC(C)(C)NC(N(C)Cc2ccccc2)=N1 [Example 5, acetate]
// result 12.5

// query Specify MBC for CCCCCCCCCNC(=N)NC(=N)N(C)Cc1ccccc1.Cl.Cl and stop.
// result 6.25

// query Name the recorded MBC of the item CCCCCCCCCCCNC1=NC(C)(C)NC(N(C)Cc2ccc(N)cc2)=N1.Cl.Cl in your answer.
// result 37.5

// query Identify MBC associated with the molecule CCCCCCCCN(C)C(=N)NC(=N)NCc1ccc(Cl)c(Cl)c1.Cl
// result 25

// query For the molecule CC(=O)O.CCCCCCCCCCCCNC1=NC(N2CCN(C)CC2)=NC(C)(C)N1 , give its measured MBC value.
// result 25
